Measured IC50 on PKCθ (Homo sapiens, UniProt Q04759) follows.
Sequence (Q04759 whole entry): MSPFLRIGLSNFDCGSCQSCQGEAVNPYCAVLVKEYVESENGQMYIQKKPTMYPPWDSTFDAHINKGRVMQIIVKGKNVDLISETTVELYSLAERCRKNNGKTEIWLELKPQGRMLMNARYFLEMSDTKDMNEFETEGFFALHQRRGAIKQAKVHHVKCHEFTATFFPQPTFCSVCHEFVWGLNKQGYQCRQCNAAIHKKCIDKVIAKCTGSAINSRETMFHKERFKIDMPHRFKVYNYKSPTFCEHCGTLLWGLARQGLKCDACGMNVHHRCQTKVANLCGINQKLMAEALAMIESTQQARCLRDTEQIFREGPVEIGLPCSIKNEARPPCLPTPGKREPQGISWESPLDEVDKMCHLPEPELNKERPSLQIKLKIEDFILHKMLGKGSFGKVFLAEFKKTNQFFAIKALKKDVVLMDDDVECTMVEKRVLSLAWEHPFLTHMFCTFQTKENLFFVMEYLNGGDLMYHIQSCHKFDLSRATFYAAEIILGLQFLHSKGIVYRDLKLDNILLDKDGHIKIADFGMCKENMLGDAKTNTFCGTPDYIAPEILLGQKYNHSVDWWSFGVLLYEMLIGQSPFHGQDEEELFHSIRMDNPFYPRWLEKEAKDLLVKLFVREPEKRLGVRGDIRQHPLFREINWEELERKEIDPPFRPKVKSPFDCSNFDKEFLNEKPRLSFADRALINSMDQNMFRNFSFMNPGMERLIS

Some solved entries appear below for comparison.
>  <molecule>
CN1CCN(c2nc(C3=C(c4c[nH]c5sccc45)C(=O)NC3=O)c3ccccc3n2)CC1CO (centres unmarked) [E.1.45]

>  <assayed target>
PKCθ (Homo sapiens, UniProt Q04759)

>  <IC50>
< 100 nM

$$$$
>  <molecule>
CN(C)C1(C)CCN(c2nc(C3=C(c4c[nH]c5sccc45)C(=O)NC3=O)c3ccccc3n2)CC1 [E.1.41]

>  <assayed target>
PKCθ (Homo sapiens, UniProt Q04759)

>  <IC50>
100 to 500 nM

$$$$
>  <molecule>
CN(C)[C@H]1CC[C@@H](n2nc(C3=C(c4c[nH]c5sccc45)C(=O)NC3=O)c3ccccc32)CC1 [F.4.5]

>  <assayed target>
PKCθ (Homo sapiens, UniProt Q04759)

>  <IC50>
< 100 nM

$$$$
>  <molecule>
O=C1NC(=O)C(c2c[nH]c3sccc23)=C1c1nc(N2CCC23CCNCC3)nc2ccccc12 [E.1.36]

>  <assayed target>
PKCθ (Homo sapiens, UniProt Q04759)

>  <IC50>
< 100 nM

$$$$
>  <molecule>
O=C1NC(=O)C(c2c[nH]c3sccc23)=C1c1nc(N2CCN3CCC[C@H]3C2)nc2sccc12 [E.3.1]

>  <assayed target>
PKCθ (Homo sapiens, UniProt Q04759)

>  <IC50>
< 100 nM

$$$$

Assay PKCθ (Homo sapiens, UniProt Q04759), sample O=C1NC(=O)C(c2c[nH]c3sccc23)=C1c1nc(N2CCN3CCC[C@@H]3C2)nc2ccccc12 [E.1.1] , IC50 read: < 100 nM

Observed IC50, PKCθ (Homo sapiens, UniProt Q04759), O=C1NC(=O)C(c2c[nH]c3sccc23)=C1c1nc(N2CC[C@@H]3NCC[C@@H]3C2)nc2ccccc12 (relative stereo) [G.1.19] : < 100 nM

The reported IC50 value, PKCθ (Homo sapiens, UniProt Q04759), for CN1CCN(c2nc(C3=C(c4c[nH]c5ccsc45)C(=O)NC3=O)c3ccccc3n2)CC1 [F.1.2] reads < 100 nM

---

Reported IC50 for target or system PKCθ (Homo sapiens, UniProt Q04759), by entry.

>  <compound>
CN(C)CC1CCn2c(c(C3=C(c4c[nH]c5sccc45)C(=O)NC3=O)c3ccccc32)C1 (stereo not shown)

>  <IC50>
< 100 nM

$$$$
>  <compound>
CC(C)(CO)N1CCN(c2nc(C3=C(c4c[nH]c5sccc45)C(=O)NC3=O)c3ccccc3n2)CC1

>  <IC50>
< 100 nM

$$$$
>  <compound>
COc1cccc2nc(N3CCN(C)CC3)nc(C3=C(c4c[nH]c5sccc45)C(=O)NC3=O)c12

>  <IC50>
100 to 500 nM

$$$$
>  <compound>
CCc1ncc2n1CCN(c1nc(C3=C(c4c[nH]c5sccc45)C(=O)NC3=O)c3ccccc3n1)C2

>  <IC50>
< 100 nM

$$$$

Form: item CN1CCN(c2cc(C3=C(c4c[nH]c5ccsc45)C(=O)NC3=O)c3ccccc3n2)CC1 ; test system PKCθ (Homo sapiens, UniProt Q04759); IC50: < 100 nM

The measured IC50 that O=C1NC(=O)C(c2c[nH]c3sccc23)=C1c1nc(N2CCC(O)(CN3CCCC3)CC2)nc2ccccc12 showed for PKCθ (Homo sapiens, UniProt Q04759) is 100 to 500 nM

Case CN(C)[C@H]1CC[C@@H](Cn2nc(C3=C(c4c[nH]c5sccc45)C(=O)NC3=O)c3ccccc32)CC1 , PKCθ (Homo sapiens, UniProt Q04759), IC50 recorded as 100 to 500 nM
